Molecular target: GRM5 (Homo sapiens)
Construct: purchased Promega (in-house HiBiT-GPCR construct library, NanoBRET)
Sequence (P41594 21-1212): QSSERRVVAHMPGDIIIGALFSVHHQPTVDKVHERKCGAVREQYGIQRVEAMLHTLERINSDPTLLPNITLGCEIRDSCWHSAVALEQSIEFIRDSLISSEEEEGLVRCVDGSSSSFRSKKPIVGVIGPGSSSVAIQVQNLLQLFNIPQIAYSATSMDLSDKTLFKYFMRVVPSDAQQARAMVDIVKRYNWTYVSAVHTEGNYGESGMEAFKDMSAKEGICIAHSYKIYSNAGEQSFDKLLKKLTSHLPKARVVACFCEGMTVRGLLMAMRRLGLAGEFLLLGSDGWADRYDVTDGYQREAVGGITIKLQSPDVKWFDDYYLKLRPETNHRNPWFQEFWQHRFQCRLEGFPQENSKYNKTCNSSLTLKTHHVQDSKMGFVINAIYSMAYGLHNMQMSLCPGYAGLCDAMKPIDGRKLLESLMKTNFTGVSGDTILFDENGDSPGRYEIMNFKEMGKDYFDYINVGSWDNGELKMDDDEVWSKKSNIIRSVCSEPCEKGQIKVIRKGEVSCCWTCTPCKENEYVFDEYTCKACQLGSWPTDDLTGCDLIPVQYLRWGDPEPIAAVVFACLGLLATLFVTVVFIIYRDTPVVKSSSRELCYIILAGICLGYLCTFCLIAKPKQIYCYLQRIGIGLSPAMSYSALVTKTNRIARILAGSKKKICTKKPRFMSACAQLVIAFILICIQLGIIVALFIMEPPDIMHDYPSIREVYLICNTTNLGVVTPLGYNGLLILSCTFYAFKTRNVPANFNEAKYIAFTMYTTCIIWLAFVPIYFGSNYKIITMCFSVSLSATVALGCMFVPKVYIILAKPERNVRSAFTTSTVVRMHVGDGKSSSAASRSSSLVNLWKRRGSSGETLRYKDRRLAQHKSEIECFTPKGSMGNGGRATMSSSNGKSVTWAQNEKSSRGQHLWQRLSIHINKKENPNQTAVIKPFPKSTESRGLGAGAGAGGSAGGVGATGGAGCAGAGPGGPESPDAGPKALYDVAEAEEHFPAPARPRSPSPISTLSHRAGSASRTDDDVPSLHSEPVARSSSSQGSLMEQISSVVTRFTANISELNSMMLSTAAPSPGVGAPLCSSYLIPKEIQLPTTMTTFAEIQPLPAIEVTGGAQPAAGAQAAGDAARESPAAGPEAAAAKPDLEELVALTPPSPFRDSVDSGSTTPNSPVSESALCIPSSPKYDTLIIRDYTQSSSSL
Test: NanoBRET screen HiBiT-GRM5 in HEK293
Assay type: binding
Settings: GRM5; tracer 0.1μM
Protocol: Each tracer candidate was screened across the entire library of HiBiT-GPCR constructs using NanoBRET as the detection modality. As depicted in Figure 4A, the specificity of interactions was evaluated through decrease in BRET due to competitive displacement of a bound tracer by excess parental compound. Each tracer was analyzed for binding to each HiBiT-GPCR fusion in the absence and in the presence of competing parental compound. […]
property-label: NanoBRET Fold Response
# respond with the number and nothing more

compound="O=C(CCc1ccc2n1[B-](F)(F)[N+]1=C(c3ccc[nH]3)C=CC1=C2)NCc1ccc(C(=O)NCCOCCC(=O)N[C@@H]2CC[C@@]3(O)[C@H]4Cc5ccc(O)c6c5[C@@]3(CCN4CC3CC3)[C@H]2O6)cc1 [Naltrexone-3-NB590]" experimental_value=1.25

Entry CN(C)CCC=C1c2ccccc2CCc2ccc(C(=O)NCCNC(=O)CCOCCOCCOCCOCCNC(=O)CCc3ccc4n3[B-](F)(F)[N+]3=C(c5ccc[nH]5)C=CC3=C4)cc21 ; NanoBRET Fold Response = 1.05

###

biological target: LHCGR (Homo sapiens, UniProt P22888); construct: purchased Promega (in-house HiBiT-GPCR construct library, NanoBRET); assay: NanoBRET screen HiBiT-LHCGR in HEK293; format: binding; details: LHCGR; tracer 1μM
Sequence (P22888 27-699): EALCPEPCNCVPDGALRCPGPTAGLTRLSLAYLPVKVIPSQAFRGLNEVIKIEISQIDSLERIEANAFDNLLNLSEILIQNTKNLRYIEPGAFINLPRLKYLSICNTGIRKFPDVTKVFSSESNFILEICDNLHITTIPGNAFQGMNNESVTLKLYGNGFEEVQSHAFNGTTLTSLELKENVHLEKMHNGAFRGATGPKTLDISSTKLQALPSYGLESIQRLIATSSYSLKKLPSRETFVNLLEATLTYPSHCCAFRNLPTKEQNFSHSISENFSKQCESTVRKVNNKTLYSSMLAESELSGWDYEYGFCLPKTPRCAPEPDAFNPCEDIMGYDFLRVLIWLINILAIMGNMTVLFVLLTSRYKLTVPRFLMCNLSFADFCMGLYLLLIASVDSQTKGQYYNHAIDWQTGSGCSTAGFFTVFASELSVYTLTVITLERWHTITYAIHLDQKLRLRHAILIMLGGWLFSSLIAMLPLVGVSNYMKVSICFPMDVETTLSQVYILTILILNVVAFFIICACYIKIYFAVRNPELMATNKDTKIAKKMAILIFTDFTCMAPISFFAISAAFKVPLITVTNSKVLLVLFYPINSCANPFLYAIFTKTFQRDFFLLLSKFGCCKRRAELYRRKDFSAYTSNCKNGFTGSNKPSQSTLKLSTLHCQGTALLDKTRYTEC
property-label: NanoBRET Fold Response
Hey, just send me the number, nothing else.

compound="N#CN=C(NCCCOc1cccc(CN2CCCCC2)c1)NCCNC(=O)CCOCCOCCOCCOCCNC(=O)CCc1ccc2n1[B-](F)(F)[N+]1=C(c3ccc[nH]3)C=CC1=C2 [Aminopotentidine-2-NB590]" experimental_value=1.00
compound="O=C(CCc1ccc2n1[B-](F)(F)[N+]1=C(c3ccc[nH]3)C=CC1=C2)NCCOCCOCCNC(=O)OCCOCCN1CCN(C2=Nc3ccccc3Sc3ccccc32)CC1 [Quetiapine-a-2-NB590]" experimental_value=0.79

Continue with the next compound.
Entry under test: CN(C)CCC=C1c2ccccc2CCc2ccc(C(=O)NCCNC(=O)CCOCCOCCOCCOCCNC(=O)CCc3ccc4n3[B-](F)(F)[N+]3=C(c5ccc[nH]5)C=CC3=C4)cc21 [Amitriptyline-b-2-NB590] . Its NanoBRET Fold Response was 1.00

###

biological target: XCR1 (Homo sapiens, UniProt P46094); construct: purchased Promega (in-house HiBiT-GPCR construct library, NanoBRET); test: NanoBRET screen HiBiT-XCR1 in HEK293; format: binding; conditions: XCR1; tracer 0.1μM
Sequence (P46094 whole entry): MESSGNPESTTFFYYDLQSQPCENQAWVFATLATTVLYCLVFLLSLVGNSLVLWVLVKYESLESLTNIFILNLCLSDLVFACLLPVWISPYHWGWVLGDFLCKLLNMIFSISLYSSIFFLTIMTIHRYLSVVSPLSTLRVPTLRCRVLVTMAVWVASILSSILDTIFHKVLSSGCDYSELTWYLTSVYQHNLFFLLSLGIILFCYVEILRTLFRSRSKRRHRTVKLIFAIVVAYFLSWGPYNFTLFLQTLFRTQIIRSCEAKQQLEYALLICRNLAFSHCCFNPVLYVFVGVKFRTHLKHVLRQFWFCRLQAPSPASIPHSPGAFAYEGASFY
The entries below are paired with their reported NanoBRET Fold Response.
Kindly provide the number alone.

Please review the entries below; each comes with its answer.
molecule=COc1ccccc1N1CCN(CCCCN2C(=O)c3ccc(CNC(=O)CCOCCOCCOCCOCCNC(=O)CCc4ccc5n4[B-](F)(F)[N+]4=C(c6ccc[nH]6)C=CC4=C5)cc3C2=O)CC1 experimental_value=1.44
molecule=COc1ccccc1N1CCN(CCCCN2C(=O)c3ccc(CNC(=O)CCOCCNC(=O)c4ccc(CNC(=O)CCc5ccc6n5[B-](F)(F)[N+]5=C(c7ccc[nH]7)C=CC5=C6)cc4)cc3C2=O)CC1 experimental_value=1.29
molecule=N#CN=C(NCCCOc1cccc(CN2CCCCC2)c1)NCCNC(=O)CCOCCOCCOCCOCCNC(=O)CCc1ccc2n1[B-](F)(F)[N+]1=C(c3ccc[nH]3)C=CC1=C2 experimental_value=1.11
molecule=O=C(CCOCCOCCOCCOCCNC(=O)CCc1ccc2n1[B-](F)(F)[N+]1=C(c3ccc[nH]3)C=CC1=C2)NCCCN1CCN(C2=Nc3ccccc3Oc3ccc(Cl)cc32)CC1 experimental_value=0.44
molecule=O=C(CCc1ccc2n1[B-](F)(F)[N+]1=C(c3ccc[nH]3)C=CC1=C2)NCCOCCOCCNC(=O)OCCOCCN1CCN(C2=Nc3ccccc3Sc3ccccc32)CC1 experimental_value=1.07
molecule=CCCn1c(=O)c2[nH]c(-c3ccc(OCC(=O)NCCNC(=O)CCOCCNC(=O)c4ccc(CNC(=O)CCc5ccc6n5[B-](F)(F)[N+]5=C(c7ccc[nH]7)C=CC5=C6)cc4)cc3)nc2n(CCC)c1=O experimental_value=0.87
molecule=Cc1cc2c(s1)Nc1ccccc1N=C2N1CCN(CCCNC(=O)CCOCCOCCOCCOCCNC(=O)CCc2ccc3n2[B-](F)(F)[N+]2=C(c4ccc[nH]4)C=CC2=C3)CC1 experimental_value=0.88
molecule="Cc1nc2n(c(=O)c1CCN1CCC(c3noc4cc(F)ccc34)CC1)CCCC2OC(=O)NCCOCCOCCOCCOCCNC(=O)CCc1ccc2n1[B-](F)(F)[N+]1=C(c3ccc[nH]3)C=CC1=C2 (stereo not drawn)" experimental_value=0.97

Sample CC(C)N(CC[C@H](c1ccccc1)c1cc(CCNC(=O)c2ccc(CNC(=O)CCc3ccc4n3[B-](F)(F)[N+]3=C(c5ccc[nH]5)C=CC3=C4)cc2)ccc1O)C(C)C ; NanoBRET Fold Response observed: 0.80
